Source listed as ChEMBL document CHEMBL4354819.

Consider the following compounds; for each one, report its pIC50.
assay_system: Toll-like receptor 8 (Homo sapiens, UniProt Q9NR97)
Sequence (Q9NR97 whole entry): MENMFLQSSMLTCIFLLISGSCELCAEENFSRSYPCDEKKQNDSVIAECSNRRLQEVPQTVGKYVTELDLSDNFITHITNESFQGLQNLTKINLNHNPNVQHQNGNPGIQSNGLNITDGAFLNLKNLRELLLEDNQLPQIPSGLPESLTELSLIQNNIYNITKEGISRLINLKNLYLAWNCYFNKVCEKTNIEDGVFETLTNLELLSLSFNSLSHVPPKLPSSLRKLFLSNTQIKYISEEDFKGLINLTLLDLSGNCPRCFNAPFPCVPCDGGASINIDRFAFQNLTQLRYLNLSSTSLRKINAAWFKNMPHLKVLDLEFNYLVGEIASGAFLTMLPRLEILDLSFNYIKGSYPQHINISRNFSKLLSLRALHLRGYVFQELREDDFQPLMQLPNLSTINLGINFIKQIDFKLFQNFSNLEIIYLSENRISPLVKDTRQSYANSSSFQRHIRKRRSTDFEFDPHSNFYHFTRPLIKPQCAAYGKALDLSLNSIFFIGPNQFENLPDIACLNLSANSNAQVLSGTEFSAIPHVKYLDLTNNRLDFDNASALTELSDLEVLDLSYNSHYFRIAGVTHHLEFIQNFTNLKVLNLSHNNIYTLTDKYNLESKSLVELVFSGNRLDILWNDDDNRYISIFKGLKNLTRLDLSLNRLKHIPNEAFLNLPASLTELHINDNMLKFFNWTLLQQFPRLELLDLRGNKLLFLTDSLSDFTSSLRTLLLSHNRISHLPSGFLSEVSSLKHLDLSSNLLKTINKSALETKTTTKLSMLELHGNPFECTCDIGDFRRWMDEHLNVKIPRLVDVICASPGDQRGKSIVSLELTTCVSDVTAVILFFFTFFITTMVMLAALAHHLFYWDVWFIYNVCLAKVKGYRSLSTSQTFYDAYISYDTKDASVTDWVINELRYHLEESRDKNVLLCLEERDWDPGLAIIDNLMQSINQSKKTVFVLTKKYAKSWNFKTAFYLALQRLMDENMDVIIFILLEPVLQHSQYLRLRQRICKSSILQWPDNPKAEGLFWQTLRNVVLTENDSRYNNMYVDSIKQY
measurement_protocol: Inhibition of human TLR8 expressed in HEK293 cells assessed as reduction in R848-induced NFkappaB production incubated for 16 hrs by quanti-blue SEAP assay
Assay type: cell-based
The quantity pIC50 is defined as the negative base-10 logarithm of the molar concentration.

Request: API: value(readout= pIC50, system= Toll-like receptor 8 (Homo sapiens, UniProt Q9NR97), query= `O=C(Nc1ccc(Oc2cc(C(F)(F)F)cc(C(F)(F)F)c2)cc1)c1cc(Cl)ccc1F` )
Response: 5.95

Request: API: value(readout= pIC50, system= Toll-like receptor 8 (Homo sapiens, UniProt Q9NR97), query= `Nc1c(Cl)cccc1Oc1ccc(-c2nnco2)cc1` )
Response: 5.28

Request: API: value(readout= pIC50, system= Toll-like receptor 8 (Homo sapiens, UniProt Q9NR97), query= `O=C(Nc1ccc(Oc2cc(C(F)(F)F)cc(C(F)(F)F)c2)cc1)c1c(F)cccc1I` )
Response: 5.98

Request: API: value(readout= pIC50, system= Toll-like receptor 8 (Homo sapiens, UniProt Q9NR97), query= `N#Cc1c(Br)cccc1Oc1ccc(-c2nnco2)cc1` )
Response: 6.06

Request: API: value(readout= pIC50, system= Toll-like receptor 8 (Homo sapiens, UniProt Q9NR97), query= `N#Cc1c(Cl)cccc1COc1ccc(-c2nnco2)cc1` )
Response: 5.60

Request: API: value(readout= pIC50, system= Toll-like receptor 8 (Homo sapiens, UniProt Q9NR97), query= `O=[N+]([O-])c1c(Cl)cccc1Oc1ccc(-c2nnco2)cc1` )
Response: 6.11

Request: API: value(readout= pIC50, system= Toll-like receptor 8 (Homo sapiens, UniProt Q9NR97), query= `O=C(Nc1ccc(Oc2cc(C(F)(F)F)cc(C(F)(F)F)c2)cc1)c1c(F)cccc1Cl` )
Response: 5.79

Request: API: value(readout= pIC50, system= Toll-like receptor 8 (Homo sapiens, UniProt Q9NR97), query= `N#Cc1c(Cl)cccc1Oc1ccc(-c2nnco2)cc1` )
Response: 5.85

Request: API: value(readout= pIC50, system= Toll-like receptor 8 (Homo sapiens, UniProt Q9NR97), query= `O=C(Nc1ccc(Oc2cc(C(F)(F)F)cc(C(F)(F)F)c2)cc1O)c1c(F)cccc1I` )
Response: 5.58

Request: API: value(readout= pIC50, system= Toll-like receptor 8 (Homo sapiens, UniProt Q9NR97), query= `O=C(Nc1ccc(Oc2cc(Br)cc(C(F)(F)F)c2)cc1)c1c(F)cccc1Cl` )
Response: 5.63

Request: API: value(readout= pIC50, system= Toll-like receptor 8 (Homo sapiens, UniProt Q9NR97), query= `O=C(Nc1ccc(Oc2cncc(C(F)(F)F)c2)cc1)c1c(F)cccc1Cl` )
Response: 5.54

Request: API: value(readout= pIC50, system= Toll-like receptor 8 (Homo sapiens, UniProt Q9NR97), query= `O=C(Nc1ccc(Oc2cc(Cl)cc(C(F)(F)F)c2)cc1)c1c(F)cccc1Cl` )
Response: 5.69

Request: API: value(readout= pIC50, system= Toll-like receptor 8 (Homo sapiens, UniProt Q9NR97), query= `O=C(Nc1ccc(Oc2cc(C(F)(F)F)cc(C(F)(F)F)c2)cc1O)c1c(F)cccc1Cl` )
Response: 5.40

Request: API: value(readout= pIC50, system= Toll-like receptor 8 (Homo sapiens, UniProt Q9NR97), query= `c1ccc(Oc2ccc(-c3nnco3)cc2)cc1` )
Response: 5.14

Request: API: value(readout= pIC50, system= Toll-like receptor 8 (Homo sapiens, UniProt Q9NR97), query= `O=C(Nc1ccc(Oc2cc(C(F)(F)F)cc(C(F)(F)F)c2)cc1)c1sccc1Cl` )
Response: 5.49
